# Test system: brain
# EXPERIMENT DESCRIPTION: Matured TTM-001 and TTM-002 variants, NGS enrichment in mouse brain
# Type: in vivo, mice
# PARTICULARS: NGS fold-enrichment, brain of mice, relative to AAV9 control
Fold Enrichment relative to AAV9, Brain (Mouse) strictly under 80 fold means satisfied; at 80 fold or over means not satisfied.

Recorded results for 6 sequences are shown here.
KTEKMSGSPHSKAQNQQT = not satisfied
KTNNGSGSPHSKAQNQQY = not satisfied
KTINGSGSPHSKAQERPT = satisfied
KELHGSGSPHSKAQNQQT = not satisfied
KTINGSVSPHGKAQNQLT (peptide inserted in AAV capsid) = satisfied
KTEDRSGSPHSKAQNQQT = satisfied

Determine whether this sequence shows Fold Enrichment relative to AAV9, Brain (Mouse) lower than 80 fold (ties excluded): `KTVRDSGSPHSKAQNQQT`
not satisfied

Determine whether this sequence shows Fold Enrichment relative to AAV9, Brain (Mouse) lower than 80 fold (ties excluded): `KTENLSGSPHSKAQNQQT`
not satisfied

Determine whether this sequence shows Fold Enrichment relative to AAV9, Brain (Mouse) lower than 80 fold (ties excluded): `KNHIGSGSPHSKAQNQQT`
satisfied

Determine whether this sequence shows Fold Enrichment relative to AAV9, Brain (Mouse) lower than 80 fold (ties excluded): `KTVNRNGSPHSKAQNQQT`
not satisfied

Determine whether this sequence shows Fold Enrichment relative to AAV9, Brain (Mouse) lower than 80 fold (ties excluded): NTINGSGSPHSKAQNQQT (peptide inserted in AAV capsid)
satisfied

###

List of Fold enrichment over AAV9 in the brain of NHPs values.
# Test system: brain, spinal cord, and DRG of the NHPs
# EXPERIMENT DESCRIPTION: NGS fold enrichment of synthetic library (passage 3) in NHPs, first cross-species screen
# Format: in vivo, cynomolgus macaques (Macaca fascicularis)
# PARTICULARS: synthetic library passage 3, intravenous, RNA from brain of NHPs, NGS, relative to wild-type AAV9
Answer format reminder: number followed by unit.

Past entries and their recorded results:
GSGQNWPALKGQQT = 1.284 fold
GSPGVSPSGQNQQT = 1.178 fold
GSGQNQAMTHGDQT = 1.257 fold
GSGNYRDHEQNQQT = 1.193 fold

From here, focus on the item given below.
Would you mind telling me what Fold enrichment over AAV9 in the brain of NHPs value was observed for `GSLFLATGGQNQQT` ?
1.220 fold

###

# System: brains, heart, liver, muscle, and DRG of the NHPs
# EXPERIMENT DESCRIPTION: Maturation of TTM-001 and TTM-002 capsids, NGS enrichment in NHP tissues
# Format: in vivo
# PARTICULARS: NGS fold-enrichment of RNA, NHP brain, relative to AAV9 control
Fold Enrichment relative to AAV9, Brain (NHP) strictly under 90 fold means Fulfilled; at 90 fold or over means Not fulfilled.

KAINGYDSPHKSGQKQQT = Fulfilled
KTVNGSGSPHSKSQNQLT = Not fulfilled

Determine whether this sequence shows Fold Enrichment relative to AAV9, Brain (NHP) lower than 90 fold (ties excluded): `KTCNGHDSPHKSGRNQQT`
Not fulfilled

Determine whether this sequence shows Fold Enrichment relative to AAV9, Brain (NHP) lower than 90 fold (ties excluded): `KTITGHDSPHKSGQHLQT`
Not fulfilled

Determine whether this sequence shows Fold Enrichment relative to AAV9, Brain (NHP) lower than 90 fold (ties excluded): `KTEHLSGSPHSKAQNQQT`
Fulfilled
